Let's look at some compounds and their measured Cell Survival Rate at 10 μM.
System: RAW 264.7 cells
Test: Cell viability (XTT method) of RAW 264.7 cells
Type: cell-based
Experimental Conditions: compound 10 μM, 24 h, means ± S.D.
Lab book: enter the figure in %, no units written.

* Cc1ccc(Nc2nc3ccccc3c3[nH]nc(N)c23)cc1 [Compound 2o] | 84.53
* COc1cccc(Nc2nc3ccccc3c3[nH]nc(N)c23)c1 [Compound 2e] | 94.32
* Nc1n[nH]c2c1c(Nc1cccc(O)c1)nc1ccccc12 [Compound 2d] | 81.70
* COc1ccccc1Nc1nc2ccccc2c2[nH]nc(N)c12 [Compound 2c] | 47.31

# Cell Survival Rate at 10 μM of Nc1n[nH]c2c1c(Nc1ccc(C(F)(F)F)cc1)nc1ccccc12 [Compound 2n] = 69.14

###

Let's look at some compounds and their measured melting point.

* COc1cc(Nc2nc3ccccc3c3[nH]nc(N)c23)cc(OC)c1OC | 161 to 162 °C
* COc1cccc(Nc2nc3ccccc3c3[nH]nc(N)c23)c1 | 184 to 186 °C
* CC(=O)c1cccc(Nc2nc3ccccc3c3[nH]nc(N)c23)c1 | > 380 °C

# melting point of `CSc1ccc(Nc2nc3ccccc3c3[nH]nc(N)c23)cc1` = 269 to 271 °C

# melting point of `COc1ccccc1Nc1nc2ccccc2c2[nH]nc(N)c12` = 210 to 211 °C

###

Let's look at some molecules and their measured Cell Survival Rate at 10 μM.
System: RAW 264.7 cells
Test: Cell viability (XTT method) of RAW 264.7 cells
Assay type: cell-based
Experimental Conditions: compound 10 μM, 24 h, means ± S.D.
Lab book: enter the figure in %, no units written.

* COc1ccc(Nc2nc3ccccc3c3[nH]nc(N)c23)cc1 | 90.57
* Nc1n[nH]c2c1c(Nc1ccccc1O)nc1ccccc12 | 53.48
* Nc1n[nH]c2c1c(Nc1ccc(Cl)cc1)nc1ccccc12 | 81.61
* Nc1n[nH]c2c1c(Nc1ccc([N+](=O)[O-])cc1)nc1ccccc12 | 90.86
* CC(=N)NCc1cccc(CN)c1.Cl.Cl [Compound 1400w, reference compound] | 99.54
* Nc1ccc(Nc2nc3ccccc3c3[nH]nc(N)c23)cc1 | 90.26
* Nc1n[nH]c2c1c(Nc1ccc(F)cc1)nc1ccccc12 | 89.99

In the following, a different molecule is considered.
# Cell Survival Rate at 10 μM of `CSc1ccc(Nc2nc3ccccc3c3[nH]nc(N)c23)cc1` = 89.62
